Each entry below carries its recorded cell survival, % (24 h after end of irradiation).
tested on: Cultured skin fibroblasts exposed to UV rays; experiment: cultured skin fibroblasts exposed to UV rays: intracellular GSH and cell survival; format: cell-based; conditions: fibroblasts exposed to UV rays; 3 h incubation with formulation containing 100 μM S-acyl-glutathione; UV without compound 10, unexposed control 100
Include the unit right after the number.

# example entries with known answers
>>> endpoint_result("CC/C=C\\C/C=C\\C/C=C\\CCCCCCCC(=O)N[C@@H](CCC(=O)N[C@@H](CSC(=O)CCCCCCC/C=C\\C/C=C\\C/C=C\\CC)C(=O)NCC(=O)O)C(=O)O")
"98%"
>>> endpoint_result("CC/C=C\\C/C=C\\C/C=C\\CCCCCCCC(=O)SCC(NC(=O)CCC(N)C(=O)O)C(=O)NCC(=O)O (centres unmarked)")
"97%"
>>> endpoint_result("CCCCC/C=C\\C/C=C\\CCCCCCCC(=O)SC[C@H](NC(=O)CC[C@H](N)C(=O)O)C(=O)NCC(=O)O")
"63%"
>>> endpoint_result("CCCCC/C=C\\C/C=C\\C/C=C\\C/C=C\\CCCC(=O)SC[C@H](NC(=O)CC[C@H](N)C(=O)O)C(=O)NCC(=O)O")
"100%"

Lab note: next compound to report on.
Kindly indicate its recorded cell survival, % (24 h after end of irradiation). Item: "CCCCCCCC/C=C\CCCCCCCC(=O)SC[C@H](NC(=O)CC[C@H](N)C(=O)O)C(=O)NCC(=O)O"
35%
